Where do these numbers come from? They come from the Kinase Knowledgebase extract (Sharma et al. 2016).

# system.under.test: CDK2 (human)
# assay.overview: Enzyme Assay
quantity.name: pIC50
Schema: pIC50 number; meaning minus log10 of the concentration expressed in molar units.

stdin: What value of pIC50 has been recorded for this entry: O=C1Nc2ccc(Br)cc2/C1=C1/Nc2ccccc2C1=NO
stdout: 6.92

----------
Please consider the recorded IC50 for UniProt P00533 in what follows.
Sequence (P00533 whole entry, looked up): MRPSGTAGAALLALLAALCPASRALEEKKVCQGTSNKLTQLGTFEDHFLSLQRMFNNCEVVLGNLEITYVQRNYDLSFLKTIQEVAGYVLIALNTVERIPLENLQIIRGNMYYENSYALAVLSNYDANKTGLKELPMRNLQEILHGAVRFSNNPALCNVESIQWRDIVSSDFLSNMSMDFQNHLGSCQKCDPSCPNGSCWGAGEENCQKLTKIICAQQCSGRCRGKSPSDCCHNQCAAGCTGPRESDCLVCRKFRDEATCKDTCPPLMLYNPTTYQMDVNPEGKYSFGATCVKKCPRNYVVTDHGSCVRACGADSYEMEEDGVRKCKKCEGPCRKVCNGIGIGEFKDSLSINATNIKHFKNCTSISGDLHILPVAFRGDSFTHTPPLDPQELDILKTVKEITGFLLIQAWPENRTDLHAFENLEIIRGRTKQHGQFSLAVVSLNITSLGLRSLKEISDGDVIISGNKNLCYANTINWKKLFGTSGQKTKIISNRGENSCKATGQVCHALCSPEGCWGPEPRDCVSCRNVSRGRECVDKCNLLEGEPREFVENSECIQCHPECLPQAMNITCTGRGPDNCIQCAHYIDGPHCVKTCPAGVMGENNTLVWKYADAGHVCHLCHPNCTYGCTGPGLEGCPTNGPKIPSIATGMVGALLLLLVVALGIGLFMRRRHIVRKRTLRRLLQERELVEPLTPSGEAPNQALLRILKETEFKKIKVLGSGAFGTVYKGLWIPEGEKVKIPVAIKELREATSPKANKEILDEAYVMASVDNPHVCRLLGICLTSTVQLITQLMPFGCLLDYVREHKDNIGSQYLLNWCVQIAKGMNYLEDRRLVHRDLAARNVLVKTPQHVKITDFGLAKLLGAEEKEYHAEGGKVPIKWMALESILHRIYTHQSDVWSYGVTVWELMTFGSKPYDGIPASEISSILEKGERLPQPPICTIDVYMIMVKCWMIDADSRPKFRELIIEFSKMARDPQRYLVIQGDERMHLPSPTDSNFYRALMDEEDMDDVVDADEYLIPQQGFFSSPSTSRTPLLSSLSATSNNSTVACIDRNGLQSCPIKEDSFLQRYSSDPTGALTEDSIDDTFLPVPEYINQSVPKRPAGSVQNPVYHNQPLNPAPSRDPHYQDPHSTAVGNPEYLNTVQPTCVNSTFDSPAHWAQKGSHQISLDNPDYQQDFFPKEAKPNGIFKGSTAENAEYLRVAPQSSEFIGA

Below are worked cases with known answers.
> print(dat)
                                        smi  quantity.name  value.measured
1  O=C(CO)N1CCC(c2[nH]nc(-c3ccc(Cl)cc3)c2-c2ccncn2)CC1           IC50          101 nM
2  CN1CCC(c2[nH]nc(-c3ccc(Cl)cc3)c2-c2ccncn2)CC1           IC50       < 1000 nM

The record that follows has no IC50 shown yet.
stdin: What value of IC50 has been recorded for this entry: O=C(CO)N1CCC(c2[nH]nc(-c3ccc(Cl)cc3)c2-c2ccncc2)CC1
stdout: < 1000 nM
